# Tested on: A549/ATCC NSCLC
# ASSAY TEXT: NCI-60 one-dose screen, 48 h (100 = growth as untreated, 0 = no growth, -100 = all killed)
# EXPERIMENTAL PARAMETERS: 10 µM unless noted
This is part of a sample that, as a whole, favours compounds with a hit. Of some 83,000 tested, about 20% had one in any assay.
Label Met when growth < 40%; otherwise Not met.

Challenge: Is the reported growth for CN(C)CCNC(=O)c1ccc(-c2nc3ccc4[nH]ncc4c3c3c2COCC3)cc1 strictly below 40%?
Response given: Met

Challenge: Is growth of O=C(O)c1ccc(-n2cc(CNc3cc(F)c(F)c(F)c3)c(-c3ccc(F)cc3)n2)cc1 strictly below 40%?
Response given: Not met

Challenge: Please determine if COc1ccc(C2CC(c3cccc(Nc4nc(Cl)nc5cc(OC)c(OC)cc45)c3)=Nc3c(N)nc(N)nc3N2)cc1 (stereo not given) is below 40% in terms of growth.
Response given: Not met

Challenge: Check if growth falls below 40% for COc1cc(OC)cc(C(=O)Nc2cccc(C#Cc3cccc4[nH]nc(N)c34)c2)c1 .
Response given: Met

Challenge: Lab log: compare recorded growth with 40%; is it strictly lower for NS(=O)(=O)c1ccc(Nc2nc(Nc3ccccc3)nc3nnc(SCC(=O)NC4CCCCC4)n23)cc1 ?
Response given: Not met
